A collection of molecules and their measured IC50
# system_tested: ROCK2 (Homo sapiens, UniProt O75116)
# Sequence (O75116 whole entry, species assumed): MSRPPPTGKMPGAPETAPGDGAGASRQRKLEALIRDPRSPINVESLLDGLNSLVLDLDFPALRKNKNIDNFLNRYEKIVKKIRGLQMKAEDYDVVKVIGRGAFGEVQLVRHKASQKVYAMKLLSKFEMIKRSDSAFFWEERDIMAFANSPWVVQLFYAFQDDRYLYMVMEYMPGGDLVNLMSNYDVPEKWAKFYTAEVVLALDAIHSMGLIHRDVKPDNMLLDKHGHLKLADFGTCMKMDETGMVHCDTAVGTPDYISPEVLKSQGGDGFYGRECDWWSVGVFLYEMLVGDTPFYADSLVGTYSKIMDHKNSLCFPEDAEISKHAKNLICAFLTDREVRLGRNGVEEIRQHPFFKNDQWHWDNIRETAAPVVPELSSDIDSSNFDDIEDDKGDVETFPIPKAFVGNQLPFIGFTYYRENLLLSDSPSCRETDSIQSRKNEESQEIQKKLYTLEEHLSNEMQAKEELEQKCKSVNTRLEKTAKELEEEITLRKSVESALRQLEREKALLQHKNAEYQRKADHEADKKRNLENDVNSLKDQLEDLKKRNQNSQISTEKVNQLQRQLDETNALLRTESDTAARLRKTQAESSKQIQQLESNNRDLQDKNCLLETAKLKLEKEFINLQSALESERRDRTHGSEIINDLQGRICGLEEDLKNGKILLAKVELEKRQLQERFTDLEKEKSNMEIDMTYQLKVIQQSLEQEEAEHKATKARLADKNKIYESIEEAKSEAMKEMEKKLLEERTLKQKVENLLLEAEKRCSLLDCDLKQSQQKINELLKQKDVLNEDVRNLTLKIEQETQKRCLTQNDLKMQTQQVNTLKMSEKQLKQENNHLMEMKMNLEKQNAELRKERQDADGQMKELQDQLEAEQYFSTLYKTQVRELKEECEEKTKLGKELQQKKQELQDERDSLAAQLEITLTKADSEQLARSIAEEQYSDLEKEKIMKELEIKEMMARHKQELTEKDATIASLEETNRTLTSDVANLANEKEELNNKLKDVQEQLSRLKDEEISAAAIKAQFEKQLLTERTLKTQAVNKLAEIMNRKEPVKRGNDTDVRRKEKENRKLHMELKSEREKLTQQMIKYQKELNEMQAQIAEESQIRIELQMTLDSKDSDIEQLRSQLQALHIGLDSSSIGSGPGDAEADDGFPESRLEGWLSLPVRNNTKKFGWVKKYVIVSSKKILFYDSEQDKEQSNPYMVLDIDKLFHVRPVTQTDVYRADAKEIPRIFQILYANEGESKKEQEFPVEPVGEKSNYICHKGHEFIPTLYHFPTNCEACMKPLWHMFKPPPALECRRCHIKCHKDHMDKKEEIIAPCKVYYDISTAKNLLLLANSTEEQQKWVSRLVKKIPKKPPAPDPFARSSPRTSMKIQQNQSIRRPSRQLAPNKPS
# assay_notes: ROCK2 kinase inhibition assay (LABCHIP 3000 Reader, FITC peptide substrate);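 further: rho kinase reaction read by separating phosphorylated from unphosphorylated peptide on chip, with inhibition of kinase activity computed per concentration across a dose-response series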
Structures can show the parent of a compound that is named as a salt.

Record CN(C)Cc1nc(C(=O)N[C@H]2CC3(C2)C[C@H](Oc2ncccc2C(N)=O)C3)c2ccc(OCc3ccccc3)cn12 (stereo partly drawn) [Example 416, TFA] , field IC50: 5 to 50 nM

Record N#Cc1ccc2c(c1)CN(C(=O)NC1CC3(C1)CC(Oc1ncccc1C(N)=O)C3)C2 (stereo not drawn) , field IC50: 50 to 250 nM

Record Cc1nn(C)cc1-c1cc(C#N)cc(C(=O)N[C@H]2CC3(C2)C[C@H](Oc2ncccc2C(N)=O)C3)c1 (stereo partly drawn) , field IC50: < 5 nM

Record [H][C@]1(Oc2ncccc2C(N)=O)C[C@@]2(C[C@H](NC(=O)c3nnn4cc(N5CCOCC5)ccc34)C2)C1 (stereo partly drawn) , field IC50: 250 to 2500 nM

Record [2H]C([2H])([2H])n1cc(-c2cc(C#N)cc(C(=O)N[C@H]3CC4(C3)C[C@H](Oc3ncccc3C(N)=O)C4)c2)cn1 (stereo partly drawn) , field IC50: < 5 nM

Continuing:
Record [H][C@]1(Oc2ncccc2C(N)=O)C[C@@]2(C[C@H](NC(=O)c3nnn4c(C5CC5)c(OCc5ccccc5)ccc34)C2)C1 (stereo partly drawn) , field IC50: 50 to 250 nM

Record CC(F)(F)COc1ccc2c(C(=O)N[C@H]3CC4(C3)C[C@H](Oc3ncccc3C(N)=O)C4)cnn2c1-c1cn[nH]c1 (stereo partly drawn) , field IC50: < 5 nM

Record NC(=O)c1cccnc1O[C@H]1CC2(C[C@H](NC(=O)c3cnc4cc(N5CCS(=O)(=O)CC5)ccn34)C2)C1 (stereo partly drawn) , field IC50: 50 to 250 nM

Record Cn1cc(-c2c(OCC(C)(C)O)ccc3c(C(=O)N[C@H]4CC5(C4)C[C@H](Oc4ncccc4C(N)=O)C5)cnn23)cn1 (stereo partly drawn) , field IC50: 5 to 50 nM
